Test system: Human Myelin PLP
test name: Phage display library screening (Example 2, Python script analysis), binding to Human Myelin PLP
run parameters: combined unique sequence count, Python/R script analysis
quantity name: Count
Numbers only.

// worked examples, Count included
substance	numeric readout
ARFVPLT (Myelin PLP-binding peptide)	30
YTWTPSR (Myelin PLP-binding peptide)	28
YTPMGTG (R3 Myelin PLP-binding peptide)	50
YSDTYKH (Myelin PLP-binding peptide)	30

Given the substance SLPGYRH (Myelin PLP-binding peptide) , write its reported Count.
28

====

Tested on: Human MPZ
Sequence (P25189 30-153 limits assumed): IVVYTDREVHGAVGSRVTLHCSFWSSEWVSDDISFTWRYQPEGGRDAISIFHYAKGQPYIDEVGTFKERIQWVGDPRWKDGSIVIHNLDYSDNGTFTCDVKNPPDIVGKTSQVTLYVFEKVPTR
test name: Phage display library screening (Example 2, Python script analysis), binding to Human MPZ
run parameters: combined unique sequence count, Python/R script analysis
Procedure: Phage display library screens were used to identify peptides that bind to target proteins (including specific laminin trimers) that are expressed in human nerves, as described in Table 3. These screens were also carried out to identify peptides that could bind selectively to nerves versus muscle. Such peptides could therefore be useful for systemic in-vivo labeling of nerves during fluorescence assisted surgery. […]
One threshold, 40, splits the recorded Count values: lower ones are TRUE, equal or higher ones are FALSE.

Illustrative cases are given below, each with its answer.
substance	label
NGAYSLAIRYTS (Human MPZ-binding peptide)	FALSE
VLKNNPT (R3 Human MPZ-binding peptide)	FALSE
TTNVTEIERESY (Human MPZ-binding peptide)	TRUE
THSTDLS (Human MPZ-binding peptide)	TRUE
HLDSRRH (Human MPZ-binding peptide)	FALSE

Determine if GMVSPHHSVYRH (Human MPZ-binding peptide) shows Count strictly lower than 40.
FALSE

Determine if YMKHSPG (Human MPZ-binding peptide) shows Count strictly lower than 40.
FALSE
